# Test system: Plasmodium berghei
# method-notes: Screen against P. berghei liver stage (PbLuc), transformed with Luciferase, at 2uM
# Assay type: functional, HepG2
# measurement-conditions: tested at 2 uM
Among all 68,000 compounds or so, about 2,700 (4%) showed an effect of 50% or more. The entries come from a sample that favours strong results as a whole.
Classes (INHIBITION): low group: < 10%; middle group: ≥ 10% and < 50%; high group: ≥ 50%

compound: O=C(c1ccnnc1)N1CCN2C[C@H](OCc3ccccn3)C[C@H]2C1
label-value: middle group
//
compound: COc1cccc(CN2CCC(CO)(Cc3ccc(Cl)cc3)CC2)c1O
label-value: high group
//
compound: CC(C)c1cc(C(=O)N2CCc3nc(C4CCCN4)ncc3C2)cs1 (stereo unspecified)
label-value: high group
//
compound: COc1ccnc(NCc2ccccc2Cn2cccn2)n1
label-value: low group
//
compound: Cc1cc(N2CCCC2(C)c2nc(C)cc(C(=O)N(C)C)n2)ncn1 (stereo unspecified)
label-value: low group
//
compound: CCOC(=O)Cn1c(=O)nc(N)c2c(-c3ccc(OC)cc3)csc21
label-value: high group
//
compound: Cc1cc(C(=O)N2CCc3nc(C4CCCN4)ncc3C2)cs1 (stereo unspecified)
label-value: middle group
//
compound: CCOCC1CN(c2ccc(C)nn2)Cc2nn(CC)cc21 (stereo unspecified)
label-value: low group
//
compound: COc1ccc(-c2csc3c2c(N)nc(=O)n3CC(N)=O)cc1
label-value: middle group
//
compound: O=C(c1ccsc1)N1CCN2C[C@H](OCc3ccccn3)C[C@H]2C1
label-value: high group
//
compound: CC[C@H](C)[C@H](NC(=O)Cc1csc(-c2cccc(Cl)c2)n1)C(=O)O
label-value: middle group

----------
# Test system: Plasmodium berghei
# method-notes: Screen against P. berghei liver stage (PbLuc), transformed with Luciferase, at 2uM
# Type: functional, HepG2
# measurement-conditions: tested at 2 uM
Screen size: about 68,000 compounds; about 2,700 (4%) showed an effect of 50% or more. The sample as a whole holds a higher share of strong results than the screen did.

compound: CCn1ccnc1CN1CCCN(C(=O)COC2CCCC2)CC1
INHIBITION: 57.81%

compound: CCOC(=O)NC(CNC(=O)c1cn(C)cn1)CC(C)C (stereo not drawn)
INHIBITION: 60.9%

compound: CSCCC(NC(N)=O)C(=O)NCc1c(C)nn(-c2ccccc2)c1C (stereo not drawn)
INHIBITION: -58.01%

compound: c1cc2occc2c(N2CCCC(c3nncn3C3CC3)C2)n1 (stereo not drawn)
INHIBITION: 12.62%

compound: Cc1ccc(OCC(=O)N2CCOCC(O)(CN3CCCC3)C2)cc1C (stereo not drawn)
INHIBITION: 5.47%

compound: CN(C)C(=O)CN1C[C@H]2CC[C@@H](C1)N(Cc1ccccc1OCCO)C2
INHIBITION: 5.28%

compound: CC(=O)N1CCC(c2ccnc(Nc3cnccn3)n2)C1 (stereo not drawn)
INHIBITION: 28.45%

compound: Cc1nn(-c2ccccc2)c(C)c1CNC(=O)NC1CC1
INHIBITION: 28.73%

compound: COc1ccc(CC(=O)N2CC[C@H](CO)[C@H](O)C2)c(OC)c1
INHIBITION: 26.93%

compound: CN(Cc1cc(C2CC2)on1)C(=O)CN1C(=O)OC(C)(C)C1=O
INHIBITION: 37.41%

compound: Cc1cc(NCc2cc(C)oc2C(F)(F)F)n2nc(C)cc2n1
INHIBITION: 51.77%

compound: O=C(NCCn1cccn1)c1nnc2ccccc2n1
INHIBITION: 7.42%

compound: Cn1cccc1C(=O)N1CC[C@H]2[C@H]1CCN2CC1CC1
INHIBITION: -0.23%

compound: O=C(NCCNS(=O)(=O)c1cccc(Cl)c1)C1CCCO1 (stereo not drawn)
INHIBITION: 1.27%

compound: c1nc(N2CCCC2)ncc1CN1CCCC(CN2CCCCC2)C1 (stereo not drawn)
INHIBITION: 52.45%

compound: CCN(CC1CCOC1)C(=O)Nc1ccc(N2CCOCC2)nc1 (stereo not drawn)
INHIBITION: -25.45%

compound: COc1cc(CNc2cc(N3CCCC3CO)ncn2)ccn1 (stereo not drawn)
INHIBITION: 21.39%

compound: O=C(CC1Cn2ncnc2NC1=O)Nc1cccc(C(F)(F)F)c1 (stereo not drawn)
INHIBITION: 0%

compound: CN(Cc1ccon1)C(=O)CN1C(=O)OC(C)(C)C1=O
INHIBITION: 70.76%

compound: COC(=O)c1sc2cccc(F)c2c1CNC(=O)C1CCCO1 (stereo not drawn)
INHIBITION: 50.3%

compound: Cc1cnc(CN2CCN(c3nc(C)cs3)C(C)C2)cn1 (stereo not drawn)
INHIBITION: 50.3%

compound: COC(=O)C(CCSC)NC(=O)Cc1c(C)nn(-c2ccccc2)c1C (stereo not drawn)
INHIBITION: -60.22%

compound: COCC(=O)N1CCC(c2cc3ncccc3c(O)n2)CC1
INHIBITION: 19.89%

compound: CCOC(=O)NC(CNC(=O)c1ncccn1)CC(C)C (stereo not drawn)
INHIBITION: 2.41%

compound: Cc1nn(C)c(Cl)c1C1CCCN1C(=O)c1cc[nH]n1 (stereo not drawn)
INHIBITION: 47.57%

compound: CCN(CC1CCOC1)C(=O)c1cccnc1N1CCOCC1 (stereo not drawn)
INHIBITION: 53.03%

compound: CCn1c(-c2ccccc2)nn(CC(=O)NCCc2ccc(C)s2)c1=O
INHIBITION: 47.25%

compound: CCc1nccn1-c1cncc(C2CCCN2)n1 (stereo not drawn)
INHIBITION: -21.99%

compound: Cc1nc(CN2CCOCC23CCN(c2ccc(C#N)cc2)CC3)cs1
INHIBITION: -30.38%

compound: Cc1cc(CN2CCN(C(=O)CCc3ccco3)CC2)on1
INHIBITION: 19.91%

compound: O=C(COc1cccc(Cl)c1)N1CCOCC(O)(CN2CCCC2)C1 (stereo not drawn)
INHIBITION: 52.1%

compound: CC(C)c1noc(CN2CCN(C(=O)c3cccnc3O)CC2)n1
INHIBITION: -2.82%

compound: CC(=O)N1CCOC2(CCN(C(=O)C3CC3)CC2)C1
INHIBITION: -31.76%

compound: Cc1nn(C)c(Cl)c1C1CCCN1C(=O)c1csnn1 (stereo not drawn)
INHIBITION: 75.98%

compound: O=C(N1CCOCC1)N1CCc2ncnc(NC3CCC3)c2CC1
INHIBITION: 24.36%

compound: Cc1nn(C)c(Cl)c1C1CCCN1C(=O)c1ccc(C(N)=O)cn1 (stereo not drawn)
INHIBITION: 68.24%

compound: O=C(NCCCOCC1CC1)Nc1cccnc1N1CCOCC1
INHIBITION: 61.57%

compound: COC(=O)c1sc2cccc(F)c2c1CNC(=O)C1CCOC1 (stereo not drawn)
INHIBITION: 33.02%

compound: CCn1c(CN(C)C(=O)c2ccc(OC)nc2)nc2ccccc21
INHIBITION: -33.03%

compound: O=C(COc1ccc(F)cc1F)N1CCOCC(O)(CN2CCCC2)C1 (stereo not drawn)
INHIBITION: 9.43%

compound: OC1(c2ccccc2F)CCN(Cc2ccccc2N2CCCC2)CC1
INHIBITION: 14.73%

compound: COc1cc(N2CCC3(CCCN(C(=O)c4cnccn4)C3)C2)ncn1 (stereo not drawn)
INHIBITION: -42.01%

compound: Cc1cc(NCCCC(F)(F)F)n2nc(C)cc2n1
INHIBITION: -2.24%

compound: Cc1cccc(N(CC(=O)c2ccccc2)C2=NCCCCC2)c1
INHIBITION: -17.7%

compound: CC(C)c1ncc(CN2CCCC(CO)C2)cn1 (stereo not drawn)
INHIBITION: 1.42%

compound: CN1CCc2c(C#N)c(NCc3cccnc3)n3cnnc3c2C1
INHIBITION: -48.47%

compound: CC1CCCN(C(=O)CNC(=O)c2ccoc2)C1 (stereo not drawn)
INHIBITION: -13.92%

compound: Cc1ccc2c(n1)N(CCN(C)C)CCN(C(=O)c1cccs1)C2
INHIBITION: -29.61%

----------
# System: Plasmodium berghei
# method-notes: Screen against P. berghei liver stage (PbLuc), transformed with Luciferase, at 2uM
# Assay type: functional, HepG2
# measurement-conditions: tested at 2 uM
Screen size: about 68,000 compounds; about 2,700 (4%) showed an effect of 50% or more. The entries come from a sample that favours strong results as a whole.
Quick rule for you: INHIBITION at 10% or higher means criterion met, lower means criterion not met.

compound: CN1CCC(Cc2noc(CCc3nc4ccccc4nc3O)n2)CC1
system-tested: Plasmodium berghei
label-value: criterion not met
--
compound: CCn1c(C)nnc1SCCNC(=O)c1cnc(N(C)C)nc1C
system-tested: Plasmodium berghei
label-value: criterion not met
--
compound: CCc1nnc(NC(=O)c2ccc(C3CCCN3CC(C)C)s2)s1 (configuration not stated)
system-tested: Plasmodium berghei
label-value: criterion met
--
compound: O=C(CN1CC(c2nc(-c3ccco3)no2)C1)NCc1ccc(F)cc1
system-tested: Plasmodium berghei
label-value: criterion met
--
compound: c1cc(CN2CCCCC2c2ccc(Nc3cnccn3)nc2)ccn1 (configuration not stated)
system-tested: Plasmodium berghei
label-value: criterion met
--
compound: NS(=O)(=O)N1CCC(C(=O)Nc2cccc(OC(F)F)c2)CC1
system-tested: Plasmodium berghei
label-value: criterion met
--
compound: CCC(NC(=O)c1cnc(N(C)C)nc1C)c1ccncc1 (configuration not stated)
system-tested: Plasmodium berghei
label-value: criterion met
--
compound: CC(C)CN1CCCC1c1ccc(C(=O)Nc2cn(C)nn2)s1 (configuration not stated)
system-tested: Plasmodium berghei
label-value: criterion not met
--
compound: Cc1ccsc1C(=O)N1CCc2ncc(CN(C)C)n2CC1
system-tested: Plasmodium berghei
label-value: criterion met
--
compound: COCCNC(=O)c1cnc(N(C)C)nc1C
system-tested: Plasmodium berghei
label-value: criterion met
--
compound: CCn1nc(C)c(C(C)NC(=O)c2cnc(N(C)C)nc2C)c1C (configuration not stated)
system-tested: Plasmodium berghei
label-value: criterion not met
--
compound: CCC(NC(=O)c1cnc(N(C)C)nc1C)c1ccc(S(C)(=O)=O)cc1 (configuration not stated)
system-tested: Plasmodium berghei
label-value: criterion met
